- Study system: DNA repair nuclease/redox regulator APEX1 (Homo sapiens)
- Assay remarks: qHTS Validation Assay for Inhibitors of the Human Apurinic/apyrimidinic Endonuclease 1 (APE1) (AID 1705)
- Settings: purified APE1 endonuclease activity, fluorescence, titration; series mostly up to 57.1 µM
Records with an inconclusive call do not appear. Calls of active or inactive are those of the source. Calls follow the shape of the dose curve; as a rule, active = well fitted inhibition curve with a large enough effect; inconclusive = small, poorly fitted or top-dose-only effect; inactive = flat fitted curve, though single readings scatter.
Labels: active, inactive

>  <Molecule>
CC(C)C1NC(=O)[C@H](CCCCN)NC(=O)[C@@H](Cc2c[nH]c3ccccc23)NC(=O)[C@H](Cc2ccc(O)cc2)NC(=O)[C@H](C)N(C)C(=O)[C@H](Cc2ccccc2)NC1=O (some centres undefined)

>  <Class label>
inactive

$$$$
>  <Molecule>
N.N.N.N.N.N.N.N.N.N.N.N.N.N.O.O.[Cl-].[Cl-].[Cl-].[Cl-].[Cl-].[Cl-].[Ru].[Ru].[Ru]

>  <Class label>
active

$$$$
>  <Molecule>
N=C1Sc2ccccc2C2=NCCCN12

>  <Class label>
inactive

$$$$
>  <Molecule>
O=C(O)CC[C@H](NC(=O)c1ccccc1C(=O)O)C(=O)O

>  <Class label>
inactive

$$$$

====

- System: AA1029
- Assay remarks: qHTS profiling for inhibitors of Plasmodium falciparum proliferation (AID 504749); also: nearly all actives have a fitted effect of over 60% in size
- Settings: P. falciparum in erythrocytes, SYBR Green DNA, 72 h; series mostly up to 28.7 µM
Inconclusive results are not listed. Activity calls are given as the source filed them. Calls come from the whole dose curve; as a rule, active = well fitted inhibition curve with a large enough effect; inconclusive = small, poorly fitted or top-dose-only effect; inactive = flat fitted curve, though single readings scatter.
Labels: true = active, false = inactive

>  <Molecule>
COc1ccc(CCNC[C@@H](O)c2ccc(O)cc2)cc1OC

>  <Class label>
false

$$$$
>  <Molecule>
CN1C[C@H](C(=O)N[C@]2(C)O[C@@]3(O)C4CCCN4C(=O)[C@H](Cc4ccccc4)N3C2=O)C[C@@H]2c3cccc4[nH]cc(c34)C[C@H]21 (some centres undefined)

>  <Class label>
true

$$$$
>  <Molecule>
C[C@@H]1[C@H](O)[C@@H](C)/C=C/C=C/C=C/C=C/C=C/C=C/C=C/[C@H](O[C@@H]2O[C@H](C)[C@@H](O)[C@H](N)[C@@H]2O)C[C@@H]2O[C@](O)(C[C@@H](O)C[C@@H](O)[C@H](O)CC[C@@H](O)C[C@@H](O)CC(=O)O[C@H]1C)C[C@H](O)[C@H]2C(=O)O

>  <Class label>
false

$$$$
>  <Molecule>
CC(C)C[C@H]1C(=O)N2CCCC2[C@]2(O)O[C@](NC(=O)[C@@H]3C=C4c5cccc6[nH]c(Br)c(c56)C[C@H]4N(C)C3)(C(C)C)C(=O)N12 (some centres undefined)

>  <Class label>
true

$$$$

====

Each item that follows carries a reported max response.
- Assay remarks: qHTS Assay for Lipid Storage Modulators (AID 1519)
- Settings: Drosophila S3 cells, BODIPY lipid droplet/cell ratio, laser cytometry; measured here: lipid channel max response; cells loaded with oleic acid
Inconclusive results are not listed.
Measurement type: max response

>  <Molecular string>
COc1cccc(Nc2ncc3ncc(=O)n(CCc4ccccc4)c3n2)c1

>  <Measurement type>
max response

>  <Reported result>
-19.1%

$$$$
>  <Molecular string>
COc1ccc(-c2nc3cnc(N4CCNCC4)nc3n(-c3ccc(OC)cc3)c2=O)cc1

>  <Measurement type>
max response

>  <Reported result>
15.1%

$$$$
>  <Molecular string>
COCC(=O)N1CCC2(CCCN(Cc3cc(C(F)(F)F)cc(C(F)(F)F)c3)C2)CC1

>  <Measurement type>
max response

>  <Reported result>
28.3%

$$$$
>  <Molecular string>
COc1ccccc1CN1CC2(CCN(S(C)(=O)=O)CC2)C1

>  <Measurement type>
max response

>  <Reported result>
24%

$$$$
>  <Molecular string>
COCC(=O)N1CCC2(CC1)CCN(c1ccccn1)CC2

>  <Measurement type>
max response

>  <Reported result>
4.41%

$$$$
>  <Molecular string>
Cc1noc(C)c1-c1ccc2ncnc(Nc3ccc(F)cc3)c2c1

>  <Measurement type>
max response

>  <Reported result>
29.1%

$$$$
>  <Molecular string>
COC(=O)N1CCC2(CC1)CN(C(=O)Nc1ccccc1)C2

>  <Measurement type>
max response

>  <Reported result>
-8.35%

$$$$
>  <Molecular string>
COc1ccc(C(=O)N2CCC3(CC2)CN(C(=O)Nc2ccccc2)C3)cc1

>  <Measurement type>
max response

>  <Reported result>
17.6%

$$$$
>  <Molecular string>
COc1ccc(C(=O)N2CCC3(CC2)CN(C(=O)NC(C)C)C3)cc1

>  <Measurement type>
max response

>  <Reported result>
0.517%

$$$$
>  <Molecular string>
COc1cccc(-c2nccc(-n3ccnc3)n2)c1

>  <Measurement type>
max response

>  <Reported result>
13.1%

$$$$
>  <Molecular string>
CCNc1ncc2nc(-c3cn(C)c4ccccc34)c(=O)n(C)c2n1

>  <Measurement type>
max response

>  <Reported result>
27.7%

$$$$
>  <Molecular string>
O=C(Oc1ccccc1)N1CCC[C@@]2(CCN(c3ncccn3)C2)C1

>  <Measurement type>
max response

>  <Reported result>
17.1%

$$$$
>  <Molecular string>
COCCNc1cc(-c2c(C)noc2C)ncn1

>  <Measurement type>
max response

>  <Reported result>
22.2%

$$$$
>  <Molecular string>
COCCn1c(=O)c(-c2ccc(Cl)cc2)nc2cnc(Nc3ccccc3)nc21

>  <Measurement type>
max response

>  <Reported result>
12.1%

$$$$
>  <Molecular string>
CS(=O)(=O)N1CCC2(CC1)CN(Cc1cc(C(F)(F)F)cc(C(F)(F)F)c1)C2

>  <Measurement type>
max response

>  <Reported result>
0.681%

$$$$
>  <Molecular string>
COCCNc1ccnc(-c2ccccc2CN(C)C)n1

>  <Measurement type>
max response

>  <Reported result>
7.72%

$$$$
>  <Molecular string>
CS(=O)(=O)N1CCC[C@@]2(CCN(c3ccccn3)C2)C1

>  <Measurement type>
max response

>  <Reported result>
2.21%

$$$$
>  <Molecular string>
COc1ncc2nc(-c3cc(F)cc(F)c3)c(=O)n(C)c2n1

>  <Measurement type>
max response

>  <Reported result>
28.7%

$$$$
>  <Molecular string>
Cc1noc(C)c1-c1cc(N2CCN(C)CC2)ncn1

>  <Measurement type>
max response

>  <Reported result>
26.7%

$$$$
>  <Molecular string>
O=C(c1cc(C(F)(F)F)cc(C(F)(F)F)c1)N1CCC2(CC1)CCN(c1ccncc1)CC2

>  <Measurement type>
max response

>  <Reported result>
0.493%

$$$$
>  <Molecular string>
CN(C)c1ncc2nc(-c3cc(F)cc(F)c3)c(=O)n(CCC#N)c2n1

>  <Measurement type>
max response

>  <Reported result>
21.3%

$$$$
>  <Molecular string>
COC(=O)N1CCC2(CCCN(Cc3ccccc3OC)C2)CC1

>  <Measurement type>
max response

>  <Reported result>
15.9%

$$$$
>  <Molecular string>
Cc1noc(C)c1C(=O)N1CCC2(CC1)CN(c1ccccc1)C2

>  <Measurement type>
max response

>  <Reported result>
1.75%

$$$$
>  <Molecular string>
CN(C)c1ncnc2ccc(-c3ccccc3C#N)cc12

>  <Measurement type>
max response

>  <Reported result>
23.3%

$$$$
>  <Molecular string>
Cc1ccccc1-c1cc(N2CCN(C)CC2)ncn1

>  <Measurement type>
max response

>  <Reported result>
-4.04%

$$$$
>  <Molecular string>
COc1ccc(-c2nc3cnc(Nc4cccc(OC)c4)nc3n(C[C@H]3CCCO3)c2=O)cc1

>  <Measurement type>
max response

>  <Reported result>
-12.2%

$$$$
>  <Molecular string>
O=C(c1ccncc1)N1CCC2(CC1)CN(c1cccc(-c3ccccc3)c1)C2

>  <Measurement type>
max response

>  <Reported result>
11.3%

$$$$
>  <Molecular string>
Cn1c(=O)c(-c2ccc(Cl)cc2)nc2cnc(N3CCOCC3)nc21

>  <Measurement type>
max response

>  <Reported result>
17.6%

$$$$
>  <Molecular string>
COc1ccc(NC(=O)N2CC3(CCN(S(C)(=O)=O)CC3)C2)cc1

>  <Measurement type>
max response

>  <Reported result>
-5.17%

$$$$
>  <Molecular string>
CS(=O)(=O)N1CCC[C@@]2(CCN(Cc3ccccc3)C2)C1

>  <Measurement type>
max response

>  <Reported result>
7.6%

$$$$
>  <Molecular string>
COc1ccc(-n2c(=O)c(-c3cccs3)nc3cnc(N(C)C)nc32)cc1

>  <Measurement type>
max response

>  <Reported result>
25.4%

$$$$
>  <Molecular string>
COc1ncc2ncc(=O)n(C[C@H]3CCCO3)c2n1

>  <Measurement type>
max response

>  <Reported result>
6.83%

$$$$
>  <Molecular string>
CN(C)C(=O)c1ccc(-c2cc(-n3ccnc3)ncn2)cc1

>  <Measurement type>
max response

>  <Reported result>
16.5%

$$$$
>  <Molecular string>
N#Cc1cccc(-c2cncnc2NCc2cccs2)c1

>  <Measurement type>
max response

>  <Reported result>
18.5%

$$$$
>  <Molecular string>
CN(C)c1ncc2nc(-c3cccs3)c(=O)n(C[C@H]3CCCO3)c2n1

>  <Measurement type>
max response

>  <Reported result>
17.7%

$$$$
>  <Molecular string>
Cc1cnc(CNc2ccnc(-c3ccccc3C(F)(F)F)n2)cn1

>  <Measurement type>
max response

>  <Reported result>
20.7%

$$$$
>  <Molecular string>
CS(=O)(=O)N1CCC2(CCN(C(=O)Nc3cccc(F)c3)CC2)CC1

>  <Measurement type>
max response

>  <Reported result>
11.5%

$$$$
>  <Molecular string>
O=C(c1ccncc1)N1CCC2(CC1)CN(c1ccccc1)C2

>  <Measurement type>
max response

>  <Reported result>
18.7%

$$$$
>  <Molecular string>
COCC(=O)N1CCC2(CC1)CCN(C(=O)Nc1cccc(F)c1)CC2

>  <Measurement type>
max response

>  <Reported result>
10.7%

$$$$
>  <Molecular string>
COc1cccc(Cn2c(=O)c(-c3cn(C)c4ccccc34)nc3cnc(N4CCNCC4)nc32)c1

>  <Measurement type>
max response

>  <Reported result>
20.8%

$$$$
>  <Molecular string>
CN(C)C(=O)c1ccc(-c2ccc3ncnc(N4CCC(C(=O)O)CC4)c3c2)cc1

>  <Measurement type>
max response

>  <Reported result>
23.2%

$$$$
>  <Molecular string>
COCCn1c(=O)cnc2cnc(N3CCN(C)CC3)nc21

>  <Measurement type>
max response

>  <Reported result>
3.72%

$$$$
>  <Molecular string>
COc1ccccc1CNc1cc(-c2c(C)noc2C)ncn1

>  <Measurement type>
max response

>  <Reported result>
41.7%

$$$$
>  <Molecular string>
COc1ncc2nc(-c3ccccc3)c(=O)n(C)c2n1

>  <Measurement type>
max response

>  <Reported result>
24.3%

$$$$
>  <Molecular string>
O=C(c1cnccn1)N1CCC2(CC1)CCN(C(c1ccccc1)c1ccccc1)CC2

>  <Measurement type>
max response

>  <Reported result>
5.2%

$$$$
